test: in vivo; conditions: Balb/c nu/nu, mouse, iv, 40 pmol, total radioactivity, Blood uptake
readout_name: tissue uptake at 24 h (%ID/g)
Provide only the numeric value, understood in %ID/g.

INPUT: State, in one line, measured tissue uptake at 24 h of CC(C)C[C@H](NC(=O)C[C@H](O)[C@H](CC(C)C)NC(=O)[C@H](Cc1c[nH]cn1)NC(=O)CNC(=O)[C@@H](NC(=O)[C@H](C)NC(=O)[C@H](Cc1c[nH]c2ccccc12)NC(=O)[C@H](CCC(N)=O)NC(=O)[C@@H](Cc1ccccc1)NC(=O)COCCOCCNC(=O)CCC(C(=O)O)N1CCN(CC(=O)O)CCN(CC(=O)O)CCN(CC(=O)O)CC1)C(C)C)C(N)=O (mixture of isomers) [[^111In]In-DOTAGA-PEG2-RM26, metal not drawn]
OUTPUT: 0.015

---

experiment: in vivo; details: Balb/c nu/nu, mouse, iv, 40 pmol, total radioactivity, Kidneys uptake
readout_name: tissue uptake at 24 h (%ID/g)
Provide only the numeric value, understood in %ID/g.

INPUT: State, in one line, measured tissue uptake at 24 h of CC(C)C[C@H](NC(=O)C[C@H](O)[C@H](CC(C)C)NC(=O)[C@H](Cc1c[nH]cn1)NC(=O)CNC(=O)[C@@H](NC(=O)[C@H](C)NC(=O)[C@H](Cc1c[nH]c2ccccc12)NC(=O)[C@H](CCC(N)=O)NC(=O)[C@@H](Cc1ccccc1)NC(=O)COCCOCCNC(=O)CCC(C(=O)O)N1CCN(CC(=O)O)CCN(CC(=O)O)CCN(CC(=O)O)CC1)C(C)C)C(N)=O (mixture of isomers) [[^111In]In-DOTAGA-PEG2-RM26, metal not drawn]
OUTPUT: 2

---

assay: Biodistribution in mice bearing PC-3 tumors; settings: Balb/c nu/nu, mouse, muscle, iv, 40 pmol, total radioactivity, Muscle uptake, 1 h pi, n = 4
readout_name: tissue uptake at 1 h (%ID/g)
Provide only the numeric value, understood in %ID/g.

INPUT: State, in one line, measured tissue uptake at 1 h of CC(C)C[C@H](NC(=O)C[C@H](O)[C@H](CC(C)C)NC(=O)[C@H](Cc1c[nH]cn1)NC(=O)CN(C)C(=O)[C@@H](NC(=O)[C@H](C)NC(=O)[C@H](Cc1c[nH]c2ccccc12)NC(=O)[C@H](CCC(N)=O)NC(=O)[C@@H](Cc1ccccc1)NC(=O)COCCOCCNC(=O)CCC(C(=O)O)N1CCN(CC(=O)O)CCN(CC(=O)O)CCN(CC(=O)O)CC1)C(C)C)C(N)=O (mixture of isomers) [[^111In]In-AU-RM26-M1, [^111In]In-DOTAGA-PEG2-(Sar^11)RM26, metal not drawn]
OUTPUT: 0.15

---

assay: Biodistribution in mice bearing PC-3 tumors; conditions: Balb/c nu/nu, mouse, lungs, iv, 40 pmol, total radioactivity, Lungs uptake, 4 h pi, n = 4
readout_name: tissue uptake at 4 h (%ID/g)
Provide only the numeric value, understood in %ID/g.

INPUT: State, in one line, measured tissue uptake at 4 h of CC(C)C[C@H](NC(=O)C[C@H](O)[C@H](CC(C)C)NC(=O)[C@H](Cc1c[nH]cn1)NC(=O)CN(C)C(=O)[C@@H](NC(=O)[C@H](C)NC(=O)[C@H](Cc1c[nH]c2ccccc12)NC(=O)[C@H](CCC(N)=O)NC(=O)[C@@H](Cc1ccccc1)NC(=O)COCCOCCNC(=O)CCC(C(=O)O)N1CCN(CC(=O)O)CCN(CC(=O)O)CCN(CC(=O)O)CC1)C(C)C)C(N)=O (mixture of isomers) [[^111In]In-AU-RM26-M1, [^111In]In-DOTAGA-PEG2-(Sar^11)RM26, metal not drawn]
OUTPUT: 0.17
